Target: T1, LINGO-Fc (human, UniProt Q96FE5 40-538, limits assumed)
T1 construct: not shown: Fc part
T1 sequence: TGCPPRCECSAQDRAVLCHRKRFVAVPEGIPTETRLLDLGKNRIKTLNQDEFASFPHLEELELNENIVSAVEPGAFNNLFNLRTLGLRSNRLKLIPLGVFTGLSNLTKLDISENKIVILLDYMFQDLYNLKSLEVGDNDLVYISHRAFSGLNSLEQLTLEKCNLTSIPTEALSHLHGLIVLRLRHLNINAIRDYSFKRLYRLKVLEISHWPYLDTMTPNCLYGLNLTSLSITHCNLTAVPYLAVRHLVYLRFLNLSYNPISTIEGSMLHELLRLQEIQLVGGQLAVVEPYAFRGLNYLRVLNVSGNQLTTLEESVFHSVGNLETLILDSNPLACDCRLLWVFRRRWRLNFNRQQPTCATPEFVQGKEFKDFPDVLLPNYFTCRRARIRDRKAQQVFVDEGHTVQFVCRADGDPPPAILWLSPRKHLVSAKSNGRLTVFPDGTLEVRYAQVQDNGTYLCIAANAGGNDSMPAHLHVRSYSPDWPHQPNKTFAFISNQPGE
Assay: direct ELISA on LINGO-Fc; half-maximal concentration relative to Li33;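 further: direct binding ELISA on plates coated with LINGO-Fc, concentration giving half of saturating binding, expressed as a ratio to the same value for the comparator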
VALUE_KIND: ELISA Ratio (ratio)
# value in ratio; strip the unit string

BINDER	ELISA Ratio [ratio]
Li33 variant W94A (SEQ ID NO:165) (antibody, V domains shown, unchanged chain from WT Li33) VH: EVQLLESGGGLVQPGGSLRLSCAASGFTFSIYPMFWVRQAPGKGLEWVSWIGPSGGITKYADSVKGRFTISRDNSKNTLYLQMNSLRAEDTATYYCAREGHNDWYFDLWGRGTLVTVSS VL: DIQMTQSPGTLSLSPGERATLSCRASQSVSSYLAWYQQKPGQAPRLLIYDASNRATGIPARFSGSGSGTEFTLTISSLQSEDFAVYYCQQYDKAPLTFGGGTKVEIKR	1.6

Per the record, Li33 variant W50D (SEQ ID NO:175) (antibody, V domains shown, unchanged chain from WT Li33) VH: EVQLLESGGGLVQPGGSLRLSCAASGFTFSIYPMFWVRQAPGKGLEWVSDIGPSGGITKYADSVKGRFTISRDNSKNTLYLQMNSLRAEDTATYYCAREGHNDWYFDLWGRGTLVTVSS VL: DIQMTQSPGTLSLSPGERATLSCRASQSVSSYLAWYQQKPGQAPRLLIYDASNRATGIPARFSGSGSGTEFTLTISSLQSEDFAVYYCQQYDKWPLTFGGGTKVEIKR has ELISA Ratio of 4

Lab note: measured ELISA Ratio of Li33 variant W50M (SEQ ID NO:150) (antibody, V domains shown, unchanged chain from WT Li33) VH: EVQLLESGGGLVQPGGSLRLSCAASGFTFSIYPMFWVRQAPGKGLEWVSMIGPSGGITKYADSVKGRFTISRDNSKNTLYLQMNSLRAEDTATYYCAREGHNDWYFDLWGRGTLVTVSS VL: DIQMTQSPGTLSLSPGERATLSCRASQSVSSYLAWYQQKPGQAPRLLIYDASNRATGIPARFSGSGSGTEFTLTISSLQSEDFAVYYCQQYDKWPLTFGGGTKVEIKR was 2

// recorded ELISA Ratio for Li33 variant P53G (SEQ ID NO:180) (antibody, V domains shown, unchanged chain from WT Li33) VH: EVQLLESGGGLVQPGGSLRLSCAASGFTFSIYPMFWVRQAPGKGLEWVSWIGGSGGITKYADSVKGRFTISRDNSKNTLYLQMNSLRAEDTATYYCAREGHNDWYFDLWGRGTLVTVSS VL: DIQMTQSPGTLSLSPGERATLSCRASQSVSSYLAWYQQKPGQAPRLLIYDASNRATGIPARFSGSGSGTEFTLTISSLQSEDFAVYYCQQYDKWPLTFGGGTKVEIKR : 3.1

For Li33 variant W50I (SEQ ID NO:174) (antibody, V domains shown, unchanged chain from WT Li33) VH: EVQLLESGGGLVQPGGSLRLSCAASGFTFSIYPMFWVRQAPGKGLEWVSIIGPSGGITKYADSVKGRFTISRDNSKNTLYLQMNSLRAEDTATYYCAREGHNDWYFDLWGRGTLVTVSS VL: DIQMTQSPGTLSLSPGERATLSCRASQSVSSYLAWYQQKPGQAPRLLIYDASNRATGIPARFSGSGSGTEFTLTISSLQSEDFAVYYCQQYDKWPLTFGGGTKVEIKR the binder record lists ELISA Ratio as 93.5
